- Assay Details: Pharmacokinetics: change in blood plasma concentration as time goes by
- Experimental Parameters: male, Sprague-Dawley, rat, in vivo, iv, 10 mg/kg

{"Compound": "COc1cccc2c1C(=O)c1c(O)c3c(c(O)c1C2=O)C[C@@](O)(C(=O)CO)C[C@@H]3O[C@H]1C[C@H](N)[C@H](O)[C@H](C)O1 [FD, doxorubicin]", "clearance (mL/min/kg)": 37.9}

----------
- Assay Details: Pharmacokinetics: change in blood plasma concentration as time goes by
- Experimental Parameters: male, Sprague-Dawley, rat, in vivo, iv, 10 mg/kg
Readout Name: half-life (min)

{"Compound": "COc1cccc2c1C(=O)c1c(O)c3c(c(O)c1C2=O)C[C@@](O)(C(=O)CO)C[C@@H]3O[C@H]1C[C@H](N)[C@H](O)[C@H](C)O1 [FD, doxorubicin]", "Unit Name": "min", "Value Reported": 51.6}
